In this section, each of the sequences is paired with its reported apparent KD of MS2 coat protein.
tested on: MS2 coat protein; assay: apparent KD of MS2 coat protein; designed switch direction (-1 OFF switch, 1 ON switch): 1; higher = weaker reporter binding; conditions: Eterna round: R98; input ligand: none
// note: answer is a bare numeric in nM

Worked examples, 8 sequences total:
[
  {
    "sequence record": "UCACUCACGUUAGGAUAUGGAUCGGAAAACGAUCCAGAAGGAACCUGCAAACACGAGGAUCACCCGUGUUCCAAUAACGAGUGA [SameSame 5 - Jieux - Same State NG 1]",
    "target under test": "MS2 coat protein",
    "measurement label": "apparent KD of MS2 coat protein",
    "u": "nM",
    "assay result": 20.3
  },
  {
    "sequence record": "UCGGUUUUCGCAGGAUAUGGAGGAUACUCCCACAUGAGCAUCAGCCAUGUCUGCAUGGAGGAAGGCCAGAAGGGCGAGAACCGA [United States 2 - Jieux - Same State NG 2]",
    "target under test": "MS2 coat protein",
    "measurement label": "apparent KD of MS2 coat protein",
    "u": "nM",
    "assay result": 31.6
  },
  {
    "sequence record": "AUCAAUCACAUAGGAUAUAGAAUAUUAUAUUUUUACAUGAGGAUCACCCAUGUUUUAUUGGGAUUCUAGAAGGAUGAGUAAUAA [JR_SSNG2_Sub055Nu]",
    "target under test": "MS2 coat protein",
    "measurement label": "apparent KD of MS2 coat protein",
    "u": "nM",
    "assay result": 147
  },
  {
    "sequence record": "UUUGGGAGCACAGGAUAUGGCACCUCGACGGCGCCAGAAGGGUGAUUCUGUUGGUGGCCACAUGAGGAUCACCCAUGUGCCUCC [Inerinusce]",
    "target under test": "MS2 coat protein",
    "measurement label": "apparent KD of MS2 coat protein",
    "u": "nM",
    "assay result": 76
  },
  {
    "sequence record": "GGAGACCUCACAGGAUAUGCUGGACUUUGUCCAGCAGAAGGGUGUUUAACAUGAGGAUCACCCAUGUAGGUCUCCAAAUUUAAU [Denovo 60]",
    "target under test": "MS2 coat protein",
    "measurement label": "apparent KD of MS2 coat protein",
    "u": "nM",
    "assay result": 707
  },
  {
    "sequence record": "GACGAAUUCUUAGGAUAUCGAGUGGAAUACACUCGAGAAGGAAGAUAUACCUGAGGAUCACCCAGGUAAAACUGGACGUCAAUA [Same State NG1 - A3C, U17G Submission 8D A68U]",
    "target under test": "MS2 coat protein",
    "measurement label": "apparent KD of MS2 coat protein",
    "u": "nM",
    "assay result": 193
  },
  {
    "sequence record": "AGAACAUGAGGAUCACCCAUGUGAAGGUCGGCGUAUAAGGGUGAGGAUAUGCUUAAAAUAAGGAAGCAGAAGGUGCUUGGUGCG [SameState #79 NG3]",
    "target under test": "MS2 coat protein",
    "measurement label": "apparent KD of MS2 coat protein",
    "u": "nM",
    "assay result": 137
  },
  {
    "sequence record": "AAAUAAAAUAUAGGAUAUGGAAACAUGAGGAUCACCCAUGUAAAAUAAGAUAAAUAAUAAUAUAACCAGAAGGAUAAAAUAUAA [LRO003_SS NG 2]",
    "target under test": "MS2 coat protein",
    "measurement label": "apparent KD of MS2 coat protein",
    "u": "nM",
    "assay result": 30
  }
]

Query: Write down measured apparent KD of MS2 coat protein (MS2 coat protein) for this sequence. CAUGUCCACACAGGAUAUGCUGGACUUUGUCCAGCAGAAGGGUGAACAUGAGGAUCACCCAUGUAAAGGACAUGUAUAUUUAAU [Denovo 16]
Result: 715

Query: Write down measured apparent KD of MS2 coat protein (MS2 coat protein) for this sequence. GCUUGCGACGCAGGAUAUGGGUGCCUGAACACGAGGAUCACCCGUGUAGAGGAAGCGAAAAGCUCUCAGAAGGGCGUCGCAGGC [United States 6 - Jieux - Same State NG 2]
Result: 50.5

Query: Write down measured apparent KD of MS2 coat protein (MS2 coat protein) for this sequence. AAAACAUGAGGAUCACCCAUGUAAUGAUCGGUUAAUAGAAGUGAGGAUAUGCUUAAAAUAAGGUAGCAGAAGGCACUGGGUACA [JR_SSNG3_Sub041]
Result: 28.1

Query: Write down measured apparent KD of MS2 coat protein (MS2 coat protein) for this sequence. CUAGCAUACCGAGGAUAUUCAUAUAAUAAAUAAACAUGAGGAUCACCCAUGUGGCGAAAGCCUAGGGAGAAGGCGGAAUGCUAU [salish99_SSNG2_r2_111]
Result: 210

Reference source for all entries: the supplement of paper PMC9170038
